Would you kindly list Curve Class for each of these molecules?
target: CIB1 and αIIb interaction (CIB1-GST : F-αIIb peptide) (Homo sapiens, UniProt Q99828); construct: made in house; host or cells: BL-21 plus RIL cells (E. coli); test: FP assay, 1536-well qHTS format (primary and confirmatory screen); format: binding; settings: qHTS primary screen of LOPAC/NPACT libraries; negative sign = inhibitory curve
Sequence (Q99828 whole entry): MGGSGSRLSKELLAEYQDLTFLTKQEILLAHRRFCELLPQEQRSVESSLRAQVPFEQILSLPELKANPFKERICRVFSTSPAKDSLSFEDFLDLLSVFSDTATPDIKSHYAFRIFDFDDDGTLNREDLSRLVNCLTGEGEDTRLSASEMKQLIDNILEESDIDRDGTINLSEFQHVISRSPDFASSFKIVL
Numbers only.

Examples with their reported Curve Class follow.
O=c1[nH]c2cc(C(F)(F)F)ccc2n1-c1cc(C(F)(F)F)ccc1O ... -2.4
COc1c(C)c(OCC(O)C(C)(C)O)cc2c1CNC2=O (stereo not drawn) ... -2.4
CN1CCc2ccccc2Cc2[nH]c3ccccc3c2CC1 ... -2.4
O=C(O)CC1(O)C(=O)Nc2ccccc21 (stereo not drawn) ... -2.4
CC(C)(Sc1ccc(CCN(CCCCC2CCCCC2)C(=O)NC2CCCCC2)cc1)C(=O)O ... -1.4
O=C(NCc1ccc(Oc2ccccc2)cc1)c1nc(-c2cc(Br)c(O)c(Br)c2)no1 ... -1.4
Cn1c(=O)c2[nH]c(-c3ccc(S(=O)(=O)O)cc3)nc2n(C)c1=O ... -2.2
CN1C[C@H](C(=O)N[C@]2(C)O[C@@]3(O)[C@@H]4CCCN4C(=O)[C@H](Cc4ccccc4)N3C2=O)C[C@@H]2c3cccc4[nH]cc(c34)C[C@H]21.CS(=O)(=O)O ... -2.4
Cl.O=c1cc(CN2CCOCC2)occ1OCCCCCSc1ccnc2cc(C(F)(F)F)ccc12 ... -2.4
O=C(Nc1ccc([N+](=O)[O-])cc1Cl)c1cc(Cl)ccc1O ... -2.4

Working through the 5 molecules below one at a time, give Curve Class for each.
1. CC/C(=C(\c1ccc(O)cc1)c1ccc(OCCNC)cc1)c1ccccc1
2. Cc1sc2c(c1C)C(c1ccc(Cl)cc1)=N[C@@H](CC(=O)Nc1ccc(OCCOCCOCCOCCNc3cccc4c3C(=O)N(C3CCC(=O)NC3=O)C4=O)cc1)c1nnc(C)n1-2 (stereo partly drawn)
3. O=c1c(-c2ccc(O)cc2)coc2cc(O)ccc12
4. COc1cc(NS(C)(=O)=O)ccc1Nc1c2ccccc2nc2ccccc12.Cl
5. O=c1c(O)c(-c2ccc(O)cc2O)oc2cc(O)cc(O)c12

1: -2.4; 2: -2.4; 3: -2.4; 4: -2.2; 5: -1.2

Working through the 3 molecules below one at a time, give Curve Class for each.
1. N=C(N)c1ccc2c(c1)N/C(=C1/C=C(CC(=O)NC(CC(=O)O)C(=O)O)C=C(c3cc(S(N)(=O)=O)ccc3O)C1=O)N2 (stereo not drawn)
2. COc1cc(O)c2c(c1)/C=C/C[C@H](O)[C@H](O)C(=O)/C=C\C[C@H](C)OC2=O
3. CCOC(=O)C1=C(C)NC(C)=C(C(=O)OC)C1c1cccc([N+](=O)[O-])c1 (stereo not drawn)

1. -1.4
2. -2.4
3. -2.4
